From: the supplement of paper PMC11451515

System: SEM cells
EXPERIMENT_NOTES: cell viability relative to DMSO control; higher = less cytotoxic
PARTICULARS: RPMI 5 mM glucose + 10% dialyzed FBS; 48 h; 0.000781 µM
With a cut-off of 90%, any cell viability strictly below it is called MET; any cell viability meeting it or above is called NOT MET.

These solved cases illustrate the format of a correct answer.
| COMPOUND | CLASS_LABEL |
| --- | --- |
| N#C/C(=C1/Nc2ccccc2S1)c1ccnc(OCc2ccc(CN3CCOCC3)cc2)n1 | MET |
| O=C(O)Cc1cccc(OCCCN(Cc2cccc(C(F)(F)F)c2Cl)CC(c2ccccc2)c2ccccc2)c1 | NOT MET |
| CCCCc1nc2cc(/C=C/C(=O)NO)ccc2n1CCN(CC)CC | MET |
| Cc1c(C(=O)c2cccc3ccccc23)c2cccc3c2n1[C@H](CN1CCOCC1)CO3 | NOT MET |
| CS[C@H]1SC[C@@H]2C(=O)N(C)[C@H](C(C)C)C(=O)OC[C@H](NC(=O)c3cnc4ccccc4n3)C(=O)N[C@H](C)C(=O)N(C)[C@H]1C(=O)N(C)[C@H](C(C)C)C(=O)OC[C@H](NC(=O)c1cnc3ccccc3n1)C(=O)N[C@H](C)C(=O)N2C | MET |

Is the reported cell viability for CN(C(Cc1ccc(O[S+](=O)([O-])c2cccc3cnccc23)cc1)C(=O)N1CCN(c2ccccc2)CC1)[S+](=O)([O-])c1cccc2cnccc12 (stereo not drawn) strictly below 90%?
NOT MET

Is the reported cell viability for `CCCCCCCCCCCC/1=C(O)/C(=O)/C=C(O)\C1=O` strictly below 90%?
NOT MET

###

Tested on: NOMO1
EXPERIMENT_NOTES: cell viability relative to DMSO control; higher = less cytotoxic
PARTICULARS: RPMI 5 mM glucose + 10% FBS; 48 h; 1.71 µM
VALUE_TYPE: cell viability (%)
Response body: numeric value in %, unit text excluded.

These recorded examples may help you get a feel for the data.
| COMPOUND | SYSTEM | cell viability [%] |
| --- | --- | --- |
| CC[C@@H]1C(=O)N(C)c2cnc(Nc3ccc(C(=O)NC4CCN(C)CC4)cc3OC)nc2N1C1CCCC1 | NOMO1 | 27.1 |
| COc1ccc(C2(C#N)CCC(C(=O)O)CC2)cc1OC1CCCC1 (stereo not drawn) | NOMO1 | 85.7 |
| COC(=O)[C@H](c1ccccc1Cl)N1CCc2sccc2C1 | NOMO1 | 21.7 |

Which measured cell viability value corresponds to CC(C)[N+]1(C)C2CCC1CC(OC(=O)C(CO)c1ccccc1)C2.O.[Br-] (stereo not drawn) ?
116

Which measured cell viability value corresponds to `Cn1cnc([N+](=O)[O-])c1Sc1ncnc2nc[nH]c12` ?
73.1

Which measured cell viability value corresponds to `N=C(N)NC(=N)N1CCOCC1` ?
97.1

Which measured cell viability value corresponds to `N#Cc1ccnc(N2C(=O)CC[C@H]2C(=O)N(c2cncc(F)c2)[C@H](C(=O)NC2CC(F)(F)C2)c2ccccc2Cl)c1` ?
79.2

Which measured cell viability value corresponds to `Cc1ccc(/C=N/NC(=O)c2ccccc2Oc2ccccc2)o1` ?
80.4

###

# maps each entry to its cell viability
Test system: NOMO1
EXPERIMENT_NOTES: cell viability relative to DMSO control; higher = less cytotoxic
PARTICULARS: RPMI 5 mM glucose + 10% dialyzed FBS; 48 h; 0.569 µM
Response body: numeric value in %, unit text excluded.

| COMPOUND | VALUE_TYPE | MEASURED_VALUE |
| --- | --- | --- |
| CC(C)c1c(C(=O)Nc2ccccc2)c(-c2ccccc2)c(-c2ccc(F)cc2)n1CC[C@@H](O)C[C@@H](O)CC(=O)[O-] | cell viability | 92.2 |

Which measured cell viability value corresponds to `CN(C)[C@@H](CCOc1cccc2ccccc12)c1ccccc1` ?
119
